- SYSTEM NAME: T1, mfNPR1-mFc:hANP complex (monkey; human, UniProt P01160 124-151)
- T1 construct: also called monkey NPR1 complexed to ANP
- TEST: SPR, mAb captured, 37C
ASSAY ENDPOINT: kon

Sample answers from the record:
| BINDER | RESULT |
| --- | --- |
| mAb25479 (antibody, human IgG4, V domains shown) VH: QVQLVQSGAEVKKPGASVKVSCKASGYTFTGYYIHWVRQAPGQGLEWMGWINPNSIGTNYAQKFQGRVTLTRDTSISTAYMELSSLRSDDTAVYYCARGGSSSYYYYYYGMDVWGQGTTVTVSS VL: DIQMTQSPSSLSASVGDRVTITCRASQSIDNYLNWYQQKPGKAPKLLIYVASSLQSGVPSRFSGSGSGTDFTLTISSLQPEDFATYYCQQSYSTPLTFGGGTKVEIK | 54700 M⁻¹ s⁻¹ |
| mAb25497 (antibody, human IgG4, V domains shown) VH: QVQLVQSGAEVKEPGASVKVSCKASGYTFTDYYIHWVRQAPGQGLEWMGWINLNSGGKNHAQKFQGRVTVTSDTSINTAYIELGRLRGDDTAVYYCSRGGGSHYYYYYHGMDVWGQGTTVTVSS VL: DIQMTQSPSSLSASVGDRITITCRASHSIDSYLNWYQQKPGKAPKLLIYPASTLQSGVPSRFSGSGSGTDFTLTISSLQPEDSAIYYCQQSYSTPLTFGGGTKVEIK | 58400 M⁻¹ s⁻¹ |
| mAb25508 (antibody, human IgG4, V domains shown) VH: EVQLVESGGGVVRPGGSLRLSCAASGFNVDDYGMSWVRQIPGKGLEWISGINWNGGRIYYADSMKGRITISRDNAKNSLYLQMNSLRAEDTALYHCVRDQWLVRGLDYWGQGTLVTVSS VL: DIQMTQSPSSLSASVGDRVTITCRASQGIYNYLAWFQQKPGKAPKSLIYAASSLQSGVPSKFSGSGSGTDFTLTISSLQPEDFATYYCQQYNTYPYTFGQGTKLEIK | 411000 M⁻¹ s⁻¹ |

Next item in the queue.
What measured kon goes with mAb22033 (antibody, human IgG4, V domains shown) VH: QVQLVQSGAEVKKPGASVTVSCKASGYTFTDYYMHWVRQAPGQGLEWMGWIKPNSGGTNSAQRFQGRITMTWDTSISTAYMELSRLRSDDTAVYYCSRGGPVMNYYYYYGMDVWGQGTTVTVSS VL: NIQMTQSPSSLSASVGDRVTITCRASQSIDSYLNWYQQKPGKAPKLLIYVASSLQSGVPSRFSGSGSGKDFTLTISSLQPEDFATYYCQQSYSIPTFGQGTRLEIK ?
68000 M⁻¹ s⁻¹
